Reference for the values: ChEMBL document CHEMBL5331133

ASSAY_NOTES: Oral bioavailability in CD-1 mouse at 6.8 microM/Kg
Assay type: ADME, organism-based
RUN_CONDITIONS: in vivo, at 6.8 µmol/kg
ENDPOINT: bioavailability (%)
Please reply with the bare figure in % and do not write the unit itself.

Task: Query (molecule): C=CC(=O)N1CCN2Cc3cc(C#CC)c(-c4c(O)cccc4Cl)c(F)c3OC[C@H]2C1 ; field requested: bioavailability
Result: 58

* * *

ASSAY_NOTES: Unbound brain-to-plasma concentration ratio in Wistar Han rat at 2.3 microM/Kg, iv and measured after 1 hrs in presence of pretreatment with elacridar for 0.5 hrs
Type: ADME, organism-based
RUN_CONDITIONS: with elacridar (pretreatment for 0.5 hrs, dose not stated), read-out: K(p,uu,brain)
ENDPOINT: Kp uu at 1 h
Form rule: numeric answer, no unit written next to it.

Task: Query (molecule): C=CC(=O)N1CCN2Cc3cc(C#CC)c(-c4c(O)cccc4Cl)c(F)c3OC[C@H]2C1 ; field requested: Kp uu at 1 h
Result: 1

* * *

ASSAY_NOTES: in vitro
RUN_CONDITIONS: human, liver microsomes, CLH
Description: Microsomal stability in human liver microsomes assessed as intrinsic clearance
Label Y when microsomal CLint is at or above 20 µL/min/mg; otherwise label N.

Solved entries:
> print(dat)
                                test.smiles  group.label
1  C=CC(=O)N1CCN2Cc3cc(OC(F)F)c(-c4c(O)cccc4Cl)c(F)c3OC[C@H]2C1            N
2  C=CC(=O)N1CCN2Cc3cc(F)c(-c4c(O)cccc4F)c(Cl)c3OC[C@H]2C1            N
3  C=CC(=O)N1C[C@H]2CCOc3c(Cl)c(-c4c(O)cccc4F)c(F)c4ncnc(c34)N2C[C@H]1C            Y
4  C=C(F)C(=O)N1CCN(c2nc(OC[C@@H]3CCCN3C)nc3c2CCN(c2cccc4cccc(Cl)c24)C3)C[C@@H]1CC#N            Y
5  C=CC(=O)N1CCN2Cc3cc(C(F)F)c(-c4c(O)cccc4Cl)c(F)c3OC[C@H]2C1            Y

Task: Threshold query (microsomal CLint >= 20 µL/min/mg) on C=CC(=O)N1CCN2Cc3cc(C#CC)c(-c4c(O)cccc4Cl)c(F)c3OC[C@H]2C1
Result: N

Task: Follow-up entry: C=CC(=O)N1CCN2C(=O)c3ccc(-c4c(C)ccc5[nH]ncc45)c(Cl)c3OC[C@@H]2C1
Result: Y

Task: Follow-up entry: C=CC(=O)N1CCN2Cc3cc(OC4CC4)c(-c4c(O)cccc4Cl)c(F)c3OC[C@H]2C1
Result: Y

Task: Follow-up entry: C=CC(=O)N1CCN2Cc3ccc(-c4c(C)ccc5[nH]ncc45)c(Cl)c3OC[C@@H]2C1
Result: Y

* * *

ASSAY_NOTES: Unbound brain-to-plasma concentration ratio in iv dosed Cynomolgus monkey administered as […] compound by HPLC analysis
Assay type: ADME, organism-based, Macaca fascicularis
RUN_CONDITIONS: read-out: K(p,uu,brain)
ENDPOINT: Kp uu
Form rule: numeric answer, no unit written next to it.

Task: Query (compound): C=CC(=O)N1CCN2Cc3cc(C#CC)c(-c4c(O)cccc4Cl)c(F)c3OC[C@H]2C1 ; field requested: Kp uu
Result: 1.6

* * *

Test system: MDR1 and BCRP
ASSAY_NOTES: Efflux ratio of apparent permeability in dog MDCK cells transfected with MDR1 and BCRP at 0.1 uM
Format: ADME, cell-based, Canis lupus familiaris
// reported efflux ratio at 0.1 µM for each item listed
Form rule: numeric answer, no unit written next to it.

> print(dat)
                                test.smiles  measurement
1  C=CC(=O)N1C[C@H]2CCOc3c(Cl)c(-c4c(O)cccc4F)c(F)c4ncnc(c34)N2C[C@H]1C         37.2
2  C=CC(=O)N1CCN2C(=O)c3ccc(-c4c(C)ccc5[nH]ncc45)c(Cl)c3OC[C@@H]2C1          1.4
3  C=CC(=O)N1CCN2Cc3cc(C#N)c(-c4c(O)cccc4Cl)c(F)c3OC[C@H]2C1          6.5
4  C=CC(=O)N1CCN2Cc3cc(F)c(-c4c(O)cccc4F)c(Cl)c3OC[C@H]2C1          1.2
5  C=CC(=O)N1CCN2Cc3cc(OC)c(-c4c(O)cccc4Cl)c(F)c3OC[C@H]2C1          1.9

Task: Query (compound): C=CC(=O)N1CCN2Cc3cc(F)c(-c4c(C)cccc4O)c(F)c3OC[C@H]2C1 ; field requested: efflux ratio at 0.1 µM
Result: 1.2

Task: Follow-up entry: C=CC(=O)N1CCN2Cc3ccc(-c4c(C)ccc5[nH]ncc45)c(Cl)c3OC[C@H]2C1
Result: 0.4

Task: Follow-up entry: C=CC(=O)N1CCN2Cc3ccc(-c4c(C)ccc5[nH]ncc45)c(Cl)c3OC[C@@H]2C1
Result: 0.9

Task: Follow-up entry: C=CC(=O)N1CCN2Cc3ccc(-c4c(O)cccc4F)c(Cl)c3OC[C@H]2C1
Result: 0.8

Task: Follow-up entry: C=CC(=O)N1CCN2Cc3cc(Cl)c(-c4c(O)cccc4Cl)c(F)c3OC[C@H]2C1
Result: 0.6

Task: Follow-up entry: C=CC(=O)N1CCN2Cc3cc(OCCN(C)C)c(-c4c(O)cccc4Cl)c(F)c3OC[C@H]2C1
Result: 12.4

* * *

// reported microsomal CLint for each item listed
ASSAY_NOTES: in vitro
RUN_CONDITIONS: human, liver microsomes, CLH
Please reply with the bare figure in µL/min/mg and do not write the unit itself.

// worked examples, microsomal CLint included
> print(dat)
                                test.smiles  result.units  measurement
1  C#Cc1cc(CN2CCN(C(=O)C=C)CC2)cc(F)c1-c1c(O)cccc1Cl     µL/min/mg           18
2  C=CC(=O)N1CCN2Cc3ccc(-c4c(O)cccc4F)c(Cl)c3OC[C@H]2C1     µL/min/mg           33
3  C=CC(=O)N1CCN2Cc3cc(OCCN(C)C)c(-c4c(O)cccc4Cl)c(F)c3OC[C@H]2C1     µL/min/mg           10
4  C=CC(=O)N1CCN2Cc3cc(F)c(-c4c(O)cccc4F)c(F)c3OC[C@H]2C1     µL/min/mg            5
5  C=CC(=O)N1CCN2Cc3ccc(-c4c(C)ccc5[nH]ncc45)c(Cl)c3OC[C@H]2C1     µL/min/mg           86

Task: Query (compound): C=CC(=O)N1CCN2C(=O)c3cc(OCCOC)c(-c4c(O)cccc4Cl)c(F)c3OC[C@H]2C1 ; field requested: microsomal CLint
Result: 41

* * *

ASSAY_NOTES: Hepatic extraction ratio in Beagle dog at 1.1 microM/Kg, iv
Type: ADME, Canis lupus familiaris
RUN_CONDITIONS: at 1.1 µmol/kg, read-out: ERH
ENDPOINT: hepatic extraction ratio
Form rule: numeric answer, no unit written next to it.

Task: Query (compound): C=CC(=O)N1CCN2Cc3cc(C#CC)c(-c4c(O)cccc4Cl)c(F)c3OC[C@H]2C1 ; field requested: hepatic extraction ratio
Result: 0.19

* * *

ASSAY_NOTES: Half life in Beagle dog at 1.1 microM/Kg, iv
Assay type: ADME, Canis lupus familiaris
RUN_CONDITIONS: in vivo
ENDPOINT: half-life (h)
Please reply with the bare figure in h and do not write the unit itself.

Task: Query (molecule): C=CC(=O)N1CCN2Cc3cc(C#CC)c(-c4c(O)cccc4Cl)c(F)c3OC[C@H]2C1 ; field requested: half-life
Result: 1.7

* * *

TESTED_ON: GTPase KRas (Homo sapiens, UniProt P01116, G12C)
Sequence (P01116 whole entry G12C): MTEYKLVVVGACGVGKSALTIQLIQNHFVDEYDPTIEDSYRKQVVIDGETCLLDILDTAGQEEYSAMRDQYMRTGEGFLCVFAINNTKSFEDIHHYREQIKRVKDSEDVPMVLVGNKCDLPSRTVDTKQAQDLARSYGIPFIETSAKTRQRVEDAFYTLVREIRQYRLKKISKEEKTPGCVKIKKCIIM
pIC50: −log10 of the molar value.
Label met when pIC50 is at or above 7; otherwise label not met.

Task: Threshold query (pIC50 >= 7) on C=CC(=O)N1CCN2Cc3cc(F)c(-c4c(O)cccc4Cl)c(F)c3OC[C@H]2C1.O
Result: met

Task: Follow-up entry: C=CC(=O)N1CCN2Cc3ccc(-c4c(C)ccc5[nH]ncc45)c(Cl)c3OC[C@H]2C1
Result: not met

Task: Follow-up entry: C=CC(=O)N1CCN(Cc2cc(F)c(-c3c(O)cccc3Cl)c(F)c2)CC1
Result: not met

Task: Follow-up entry: C=CC(=O)N1CCN2Cc3cc(C4CC4)c(-c4c(O)cccc4Cl)c(F)c3OC[C@H]2C1
Result: met

* * *

ASSAY_NOTES: Volume of distribution at steady state in Beagle dog at 1.1 microM/Kg, iv
Assay type: ADME, Canis lupus familiaris
RUN_CONDITIONS: in vivo, read-out: Vdss
ENDPOINT: Vd (L/kg)
Please reply with the bare figure in L/kg and do not write the unit itself.

Task: Query (compound): C=CC(=O)N1CCN2Cc3cc(C#CC)c(-c4c(O)cccc4Cl)c(F)c3OC[C@H]2C1 ; field requested: Vd
Result: 1.2
